Tested on: TK-10 renal
Experiment: NCI-60 one-dose screen, 48 h (100 = growth as untreated, 0 = no growth, -100 = all killed)
Settings: 10 µM unless noted
About 83,000 compounds went through this panel and 20% of them were active in at least one assay; those are over-represented in the sample as a whole.
Kindly state growth for each of the entries shown.
Answers are plain numbers, in %.

Examples with their reported growth follow.
{"MOLECULE": "CC(=O)Nc1ccc(C(=O)COc2ccc(/C=C3\\CCc4ccccc4C3=O)cc2)cc1", "MEASUREMENT_UNITS": "%", "growth": 112}
{"MOLECULE": "O=C1C(=O)c2c(nc3ccc(Cl)cn23)-c2ccccc21", "MEASUREMENT_UNITS": "%", "growth": -86.3}
{"MOLECULE": "CCOC(=O)N1CCC(N=C2CSc3nnc(-c4cc(C(F)(F)F)cc(C(F)(F)F)c4)n3N2)CC1", "MEASUREMENT_UNITS": "%", "growth": 14.9}

For every item below, please supply its growth.
1. O=C1c2cccc(NCCN=Cc3ccccc3O)c2C(=O)c2c(NCCN=Cc3ccccc3O)cccc21
2. O=C(Nc1ccc(Cl)cc1)Nc1nc2ccc(OC(F)(F)F)cc2o1
3. O=C(/C=C/c1ccc(C(F)(F)F)cc1)c1ccc(Nc2nc(NCCO)nc(NCCO)n2)cc1

# output
22.5
92.9
54.8

* * *

Kindly state growth for each of the entries shown.
Test system: CAKI-1 renal
Assay: NCI-60 one-dose screen, 48 h (100 = growth as untreated, 0 = no growth, -100 = all killed)
Details: 10 µM unless noted
This is part of a sample that, as a whole, favours compounds with a hit. Of some 83,000 tested, about 20% had one in any assay.
One number for each entry, in %.

{"COMPOUND": "CC(=O)N1N=C(c2ccc(C(F)(F)F)cc2)CC1c1ccc2c(c1)OCO2 (stereo not given)", "TESTED_ON": "CAKI-1 renal", "RECORDED_METRIC": "growth", "MEASUREMENT_UNITS": "%", "TEST_RESULT": 70.8}
{"COMPOUND": "Cc1ccc(NC(=O)c2sc3nc4c(cc3c2N)C(=O)CCC4)cc1", "TESTED_ON": "CAKI-1 renal", "RECORDED_METRIC": "growth", "MEASUREMENT_UNITS": "%", "TEST_RESULT": 56.6}
{"COMPOUND": "O=C1CNc2cc(Cl)ccc2N1", "TESTED_ON": "CAKI-1 renal", "RECORDED_METRIC": "growth", "MEASUREMENT_UNITS": "%", "TEST_RESULT": 97.8}
{"COMPOUND": "Cc1ccccc1NC(=O)NC(CC(N)=O)c1ccc2c(c1)nc(-c1cccc(Oc3ccc(C(C)(C)C)cc3)c1)n2CCCN1CCCCC1C (stereo not given)", "TESTED_ON": "CAKI-1 renal", "RECORDED_METRIC": "growth", "MEASUREMENT_UNITS": "%", "TEST_RESULT": 92.6}

# input Form field: reported growth of `COc1c(O)cc2c(c1CC=C(C)C)OC(=O)c1c(cc(O)c(CC=C(C)C)c1O)O2`
# output 50.6

* * *

Test system: NCI-H322M lung
Assay: NCI-60 one-dose screen, 48 h
Settings: 10 µM unless noted
The panel holds about 83,000 compounds, 20% with a hit somewhere; the sample as a whole holds those more often. Activity calls are given as the source filed them. The calls were made as follows: active = growth percent below 10; inactive = the rest.
Outcomes you can answer with include only these: 1 for active, 0 for inactive

Observe how each entry below is paired with its result.
{"COMPOUND": "COc1ccc(/C=C2/SC(=Nc3c(C)nn(-c4ccccc4)c3N)NC2=O)cc1", "TESTED_ON": "NCI-H322M lung", "LABEL": 0}
{"COMPOUND": "O=C(O)CCNS(=O)(=O)c1ccc(-c2ccccc2)cc1", "TESTED_ON": "NCI-H322M lung", "LABEL": 0}
{"COMPOUND": "O=C1c2cccc3c([N+](=O)[O-])ccc(c23)C(=O)N1CCCCl", "TESTED_ON": "NCI-H322M lung", "LABEL": 1}
{"COMPOUND": "Oc1c(N=Nc2nn[nH]n2)ccc2ccccc12", "TESTED_ON": "NCI-H322M lung", "LABEL": 0}
{"COMPOUND": "O=C(COc1cccc(/C=C2\\Cc3ccccc3C2=O)c1)c1ccc(Cl)cc1", "TESTED_ON": "NCI-H322M lung", "LABEL": 0}

# input I'd appreciate the recorded outcome for `CC(=O)[C@H]1CC[C@H]2[C@@H]3C[C@H](C)C4=CC(=O)CC[C@]4(C)[C@H]3C(=O)C[C@]12C` from this test.
# output 0

# input I'd appreciate the recorded outcome for O=C1C2C(C(=O)N1CC[Se][Se]CCN1C(=O)C3C(C1=O)[C@H]1C=C[C@@H]3C1)[C@H]1C=C[C@@H]2C1 (some centres undefined) from this test.
# output 1

# input I'd appreciate the recorded outcome for `COc1cnc2c(c1)C(=O)c1c-2n(CCCN2CCNCC2)c(=O)c2cc(F)ccc12` from this test.
# output 0

# input I'd appreciate the recorded outcome for CN[C@@H]1C(OC2[C@H](O[C@H]3[C@H](O)[C@@H](O)[C@H](N=C(N)N)[C@@H](O)[C@@H]3N=C(N)N)OC(C)[C@]2(O)CO)OC(CO)C(O)C1O (some centres undefined) from this test.
# output 0

* * *

Kindly state growth for each of the entries shown.
System: MOLT-4 leukemia
Assay: NCI-60 one-dose screen, 48 h (100 = growth as untreated, 0 = no growth, -100 = all killed)
Details: 10 µM unless noted
This is part of a sample that, as a whole, favours compounds with a hit. Of some 83,000 tested, about 20% had one in any assay.
Numbers only, in %.

For every item below, please supply its growth.
1. Cc1ccc(C(NC(=O)c2ccccc2)c2ccc3cccnc3c2O)cc1 (stereo unspecified)
2. CC(C)N(Cc1ccccc1)c1c(S)ssc1=S
3. COc1cc(C(=O)/C=C/c2cccc(Nc3ccnc4cc(Cl)ccc34)c2)cc(OC)c1OC
4. COC(=O)C1CCN(S(=O)(=O)c2ccc(-c3ccccc3)cc2)CC1
5. COCCCNS(=O)(=O)c1ncnc2nc[nH]c12

# output
1. 8.31
2. 0.0865
3. -6.64
4. 161
5. 102

# input Form field: reported growth of `O=C(Nc1ccccc1)P(=O)(O)c1ccccc1`
# output 95

* * *

Tested on: A498 renal
Test: NCI-60 one-dose screen, 48 h
Conditions: 10 µM unless noted
About 83,000 compounds went through this panel and 20% of them were active in at least one assay; those are over-represented in the sample as a whole. Active and inactive are the calls of the source. The calls were made as follows: active = growth percent below 10; inactive = the rest.
Outcomes you can answer with include only these: t (active), f (inactive)

{"COMPOUND": "CSc1nc2nc3c(c(-c4ccc(C)cc4)c2c(=O)[nH]1)CN(C)C/C3=C\\c1ccc(C)cc1", "LABEL": "f"}

# input I'd appreciate the recorded outcome for `Cc1onc(-c2ccccc2Cl)c1C(=O)N[C@@H]1C(=O)N2[C@@H]1SC(C)(C)[C@@H]2C(=O)O` from this test.
# output f

# input I'd appreciate the recorded outcome for `Oc1c(N=Nc2nn[nH]n2)ccc2ccccc12` from this test.
# output f

# input I'd appreciate the recorded outcome for `Cc1n(Cc2ccc3ccccc3c2)cc[n+]1Cc1ccc2ccccc2c1` from this test.
# output f

# input I'd appreciate the recorded outcome for C=C1CCC2C3(C)COC(c4ccccc4)OC3CCC2(C)C1C/C=C1/C(=O)OCC1OC(C)=O (stereo unspecified) from this test.
# output f

* * *

Test system: UACC-62 melanoma
Test: NCI-60 one-dose screen, 48 h
Conditions: 10 µM unless noted
Compounds without any hit were thinned out: in the full panel of roughly 83,000, 20% have a hit. Calls of active or inactive are those of the source. How the source made its calls: active means growth percent below 10; inactive means the rest.
Outcomes you can answer with include only these: 1 (active), -1 (inactive)

# input I'd appreciate the recorded outcome for `Cc1ccc(NC(=O)c2sc3nc4c(cc3c2N)C(=O)CCC4)cc1` from this test.
# output -1

* * *

Test system: K-562 leukemia
Assay: NCI-60 one-dose screen, 48 h
Conditions: 10 µM unless noted
Compounds without any hit were thinned out: in the full panel of roughly 83,000, 20% have a hit. Active and inactive are the calls of the source. The calls were made as follows: active = growth percent below 10; inactive = the rest.
Outcomes you can answer with include only these: y = active, n = inactive

# input I'd appreciate the recorded outcome for `COc1cccc2c1C(=O)c1c(O)c3c(c(O)c1C2=O)C[C@@](O)(C(C)=O)C[C@@H]3O[C@H]1C[C@H](N)[C@H](O)[C@H](C)O1` from this test.
# output y

# input I'd appreciate the recorded outcome for `CN(C)c1ccc(-n2nc3ccccc3n2)cc1` from this test.
# output n

# input I'd appreciate the recorded outcome for CCN1CC2=C(Nc3nc(SC)[nH]c(=O)c3C2c2cc(OC)c(OC)c(OC)c2)/C(=C/c2cc(OC)c(OC)c(OC)c2)C1 (stereo not given) from this test.
# output n

# input I'd appreciate the recorded outcome for `CC(C)CNc1nc(N=[N+]=[N-])nc(NCC(C)C)n1` from this test.
# output n

# input I'd appreciate the recorded outcome for `OCCCc1n(Cc2ccc3ccccc3c2)c2ccccc2[n+]1Cc1ccc2ccccc2c1` from this test.
# output y

# input I'd appreciate the recorded outcome for `COc1cc(-c2nc3nc4sc(C)c(C)c4c(=O)n3[nH]2)cc(OC)c1OC` from this test.
# output n

# input I'd appreciate the recorded outcome for COc1ccc(C2=NN(C(C)=O)C(c3c(C)nn(-c4ccccc4)c3N3CCOCC3)C2)cc1 (stereo not given) from this test.
# output n

# input I'd appreciate the recorded outcome for `O=C1c2cccc(NCCN=Cc3ccccc3O)c2C(=O)c2c(NCCN=Cc3ccccc3O)cccc21` from this test.
# output n

# input I'd appreciate the recorded outcome for COc1cc(C2CC(c3ccc(C)cc3)=NN2C=O)ccc1OCCN(C)C (stereo not given) from this test.
# output n

# input I'd appreciate the recorded outcome for `COc1cc(NC(=O)NCc2ccco2)ccc1-c1ccc(NC(=O)NCc2ccco2)cc1OC` from this test.
# output n
